# System: NCI-H1437
# EXPERIMENT: relative viability (nuclei count vs DMSO), 5 days (fraction); higher = more cells survive
# STUDY CONDITIONS: first compound 0.253 µM
Task for the reader: assign each of the following compounds its reported relative viability.
Answers are plain numbers.

# example entries with known answers
COMPOUND | TARGET ENTITY | EXPERIMENTAL READOUT | EXPERIMENTAL RESULT
C=C1C(=O)O[C@@H](CCCCCCCC)[C@@H]1C(=O)O [C-75] + Cc1cc(Nc2cc(N3CCN(C)CC3)nc(Sc3ccc(NC(=O)C4CC4)cc3)n2)n[nH]1 [Tozasertib] (partner 0.1 µM) | NCI-H1437 | relative viability | 0.462
Oc1nc(-c2ccc(C(F)(F)F)cc2)nc2c1CSCC2 [XAV939] + COc1cccc2cc(-c3nc([C@H]4CC[C@H](C(=O)O)CC4)n4ncnc(N)c34)[nH]c12 [OSI-027] (partner 0.5 µM) | NCI-H1437 | relative viability | 0.877
Oc1nc(-c2ccc(C(F)(F)F)cc2)nc2c1CSCC2 [XAV939] + CC1(C)CCC(c2ccc(Cl)cc2)=C(CN2CCN(c3ccc(C(=O)NS(=O)(=O)c4ccc(N[C@H](CCN5CCOCC5)CSc5ccccc5)c(S(=O)(=O)C(F)(F)F)c4)cc3)CC2)C1 [Navitoclax] (partner 0.5 µM) | NCI-H1437 | relative viability | 0.931

Let me check: C=C1C(=O)O[C@@H](CCCCCCCC)[C@@H]1C(=O)O [C-75] + CCNC(=O)c1noc(-c2cc(C(C)C)c(O)cc2O)c1-c1ccc(CN2CCOCC2)cc1 [Luminespib] (partner 0.01 µM) , system NCI-H1437, measured relative viability is 1.27

###

Task for the reader: assign each of the following compounds its reported relative viability.
# System: NCI-H838
# EXPERIMENT: relative viability (nuclei count vs DMSO), 5 days (fraction); higher = more cells survive
# STUDY CONDITIONS: first compound 1.265 µM
One number for each entry.

COMPOUND | relative viability
O=C(O)c1ccc(-c2c[nH]c3ncc(-c4ccccc4)cc23)cc1C1CCCC1 + CC1(C)CCC(c2ccc(Cl)cc2)=C(CN2CCN(c3ccc(C(=O)NS(=O)(=O)c4ccc(N[C@H](CCN5CCOCC5)CSc5ccccc5)c(S(=O)(=O)C(F)(F)F)c4)cc3)CC2)C1 [Navitoclax] (partner 0.5 µM) | 1.07

I need relative viability for every entry listed below, if you could help.
1. O=C(O)c1ccc(-c2c[nH]c3ncc(-c4ccccc4)cc23)cc1C1CCCC1 + CC(=O)Nc1cccc(-n2c(=O)n(C3CC3)c(=O)c3c(Nc4ccc(I)cc4F)n(C)c(=O)c(C)c32)c1 [Trametinib] (partner 0.02 µM)
2. O=C(O)c1ccc(-c2c[nH]c3ncc(-c4ccccc4)cc23)cc1C1CCCC1 + O=C(CCCCCCC(=O)Nc1ccccc1)NO [Vorinostat] (partner 1 µM)
3. O=C(O)c1ccc(-c2c[nH]c3ncc(-c4ccccc4)cc23)cc1C1CCCC1 + Nc1ncn([C@H]2C[C@H](O)[C@@H](CO)O2)c(=O)n1 [Decitabine] (partner 2 µM)
4. O=C(O)c1ccc(-c2c[nH]c3ncc(-c4ccccc4)cc23)cc1C1CCCC1 + Cc1cc(Nc2cc(N3CCN(C)CC3)nc(Sc3ccc(NC(=O)C4CC4)cc3)n2)n[nH]1 [Tozasertib] (partner 0.1 µM)

[out]
1: 0.472; 2: 0.544; 3: 0.357; 4: 0.229

###

# Tested on: CAL-12T
# EXPERIMENT: relative viability (nuclei count vs DMSO), 5 days (fraction); higher = more cells survive
# STUDY CONDITIONS: first compound 0.1581 µM
EXPERIMENTAL READOUT: relative viability

COMPOUND | EXPERIMENTAL READOUT | EXPERIMENTAL RESULT
CC1(C)CCC(c2ccc(Cl)cc2)=C(CN2CCN(c3ccc(C(=O)NS(=O)(=O)c4ccc(N[C@H](CCN5CCOCC5)CSc5ccccc5)c(S(=O)(=O)C(F)(F)F)c4)cc3)CC2)C1 [Navitoclax] + C[C@]1(O)C[C@@H](c2nc(-c3ccc4ccc(-c5ccccc5)nc4c3)c3c(N)nccn32)C1 [Linsitinib] (partner 1 µM) | relative viability | 0.736
CC1(C)CCC(c2ccc(Cl)cc2)=C(CN2CCN(c3ccc(C(=O)NS(=O)(=O)c4ccc(N[C@H](CCN5CCOCC5)CSc5ccccc5)c(S(=O)(=O)C(F)(F)F)c4)cc3)CC2)C1 [Navitoclax] + N=C(N)NC(=N)NCCc1ccccc1 [Phenformin] (partner 250 µM) | relative viability | 0.503

Switching to the query record.
Let me check: CC1(C)CCC(c2ccc(Cl)cc2)=C(CN2CCN(c3ccc(C(=O)NS(=O)(=O)c4ccc(N[C@H](CCN5CCOCC5)CSc5ccccc5)c(S(=O)(=O)C(F)(F)F)c4)cc3)CC2)C1 [Navitoclax] + CC(=O)c1c(C)c2cnc(Nc3ccc(N4CCNCC4)cn3)nc2n(C2CCCC2)c1=O [Palbociclib] (partner 0.5 µM) , system CAL-12T, measured relative viability is 0.496

###

# Test system: NCI-H2087
# EXPERIMENT: relative viability (nuclei count vs DMSO), 5 days (fraction); higher = more cells survive
# STUDY CONDITIONS: first compound 0.01581 µM
Task for the reader: assign each of the following molecules its reported relative viability.
Numbers only.

# example entries with known answers
MOLECULE | EXPERIMENTAL READOUT | EXPERIMENTAL RESULT
CC1(C)CCC(c2ccc(Cl)cc2)=C(CN2CCN(c3ccc(C(=O)NS(=O)(=O)c4ccc(N[C@H](CCN5CCOCC5)CSc5ccccc5)c(S(=O)(=O)C(F)(F)F)c4)cc3)CC2)C1 [Navitoclax] + COc1cccc2cc(-c3nc([C@H]4CC[C@H](C(=O)O)CC4)n4ncnc(N)c34)[nH]c12 [OSI-027] (partner 0.5 µM) | relative viability | 0.679
CC1(C)CCC(c2ccc(Cl)cc2)=C(CN2CCN(c3ccc(C(=O)NS(=O)(=O)c4ccc(N[C@H](CCN5CCOCC5)CSc5ccccc5)c(S(=O)(=O)C(F)(F)F)c4)cc3)CC2)C1 [Navitoclax] + Nc1ncn([C@H]2C[C@H](O)[C@@H](CO)O2)c(=O)n1 [Decitabine] (partner 2 µM) | relative viability | 0.314
CC1(C)CCC(c2ccc(Cl)cc2)=C(CN2CCN(c3ccc(C(=O)NS(=O)(=O)c4ccc(N[C@H](CCN5CCOCC5)CSc5ccccc5)c(S(=O)(=O)C(F)(F)F)c4)cc3)CC2)C1 [Navitoclax] + N=C(N)NC(=N)NCCc1ccccc1 [Phenformin] (partner 250 µM) | relative viability | 0.452

Switching to the query record.
Let me check: CC1(C)CCC(c2ccc(Cl)cc2)=C(CN2CCN(c3ccc(C(=O)NS(=O)(=O)c4ccc(N[C@H](CCN5CCOCC5)CSc5ccccc5)c(S(=O)(=O)C(F)(F)F)c4)cc3)CC2)C1 [Navitoclax] + CS(=O)(=O)N1CCN(Cc2cc3nc(-c4cccc5[nH]ncc45)nc(N4CCOCC4)c3s2)CC1 [Pictilisib] (partner 1 µM) , system NCI-H2087, measured relative viability is 0.976

###

# Tested on: NCI-H1355
# EXPERIMENT: relative viability (nuclei count vs DMSO), 5 days (fraction); higher = more cells survive
# STUDY CONDITIONS: first compound 0.04 µM
EXPERIMENTAL READOUT: relative viability

COMPOUND | relative viability
O=C(O)c1ccc(-c2c[nH]c3ncc(-c4ccccc4)cc23)cc1C1CCCC1 + Nc1ncn([C@H]2C[C@H](O)[C@@H](CO)O2)c(=O)n1 [Decitabine] (partner 2 µM) | 0.337
O=C(O)c1ccc(-c2c[nH]c3ncc(-c4ccccc4)cc23)cc1C1CCCC1 + CC(C)C[C@H](NC(=O)[C@H](Cc1ccccc1)NC(=O)c1cnccn1)B(O)O [Bortezomib] (partner 0.002 µM) | 1.18
O=C(O)c1ccc(-c2c[nH]c3ncc(-c4ccccc4)cc23)cc1C1CCCC1 + O=C(c1cc(Cc2n[nH]c(=O)c3ccccc23)ccc1F)N1CCN(C(=O)C2CC2)CC1 [Olaparib] (partner 8 µM) | 0.786
O=C(O)c1ccc(-c2c[nH]c3ncc(-c4ccccc4)cc23)cc1C1CCCC1 + Cc1cc(Nc2cc(N3CCN(C)CC3)nc(Sc3ccc(NC(=O)C4CC4)cc3)n2)n[nH]1 [Tozasertib] (partner 0.1 µM) | 0.56

Just so you know, measured relative viability for O=C(O)c1ccc(-c2c[nH]c3ncc(-c4ccccc4)cc23)cc1C1CCCC1 + CC1(C)CCC(c2ccc(Cl)cc2)=C(CN2CCN(c3ccc(C(=O)NS(=O)(=O)c4ccc(N[C@H](CCN5CCOCC5)CSc5ccccc5)c(S(=O)(=O)C(F)(F)F)c4)cc3)CC2)C1 [Navitoclax] (partner 0.5 µM) came out at 0.995

Origin of the recorded values: the supplement of paper PMC10307832
